Data provenance is patent US20180148504A1.

Reported Average of S/B values follow for various binders
Molecular target: T1, recombinant purified FRα (ECL assay calibrator) (human, UniProt P15328 25-234)
T1 construct: Calibrator of the ECL sandwich assays; also called FRα calibrator; FRα standard
T1 sequence (P15328 25-234 limits assumed): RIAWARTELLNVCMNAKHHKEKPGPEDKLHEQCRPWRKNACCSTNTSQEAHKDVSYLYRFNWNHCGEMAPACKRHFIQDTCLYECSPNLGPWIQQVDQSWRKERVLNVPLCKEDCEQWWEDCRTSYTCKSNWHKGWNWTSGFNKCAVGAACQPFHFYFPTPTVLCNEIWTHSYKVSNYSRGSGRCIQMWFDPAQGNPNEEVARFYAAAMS
Experiment: ECL sandwich on FRα, signal to background; capture 19D4.B7; binder = detection Ab
quantity: Average of S/B

INSERT INTO measurements (binder, quantity, observed_result) VALUES
  ('Monoclonal antibody 1D2.D8.G10 (antibody, mouse IgG1, V domains shown, Murine IgG1 kappa from hybridoma; also called 1D2.D8.G0; ATCC PTA-123098) VH: QSGTVLARPGASVKMSCKASGYSFTSNWMHWIKQRPGQGLEWIGAIYPGNSDTSYNQKFKGKAKLTAVTSASTAYMELSSLTNEDSAVYHCTRGDGSSFWYFDVWGAGTTVTVSS VL: QSPASLVVSLGQRATISCRASKSVSTSGYSYMYWYQQKSGQPPKLLIYLASNLESGVPARFSGGGSGTDFTLNIHPVEEEDAATYYCQQSRELPPTFGGGTKLEIK', 'Average of S/B', 218),
  ('Monoclonal antibody 24H8.F3 (antibody, mouse IgG1, V domains shown, Murine IgG1 kappa from hybridoma; also called ATCC PTA-123097) VH: GPGLVAPSQSLSITCTVSGFSLTSYGVSWVRQPPGKGLEWLGVIWGDGSTNYHSTLISRLSISKDNSKSQVFLKLNSLQTDDTATYYCAKPHPAATGAMDYWGQGTSVTVSS VL: TTSSLSASLGDRVTISCRASQDISNHLNWYQQKPDGTIKLLIYYTSKLHSGVPSRFSGSGSGTDYSLTISNLEQEDIATYFCQQGNTLWTFGGGTKLEIK', 'Average of S/B', 327),
  ('Monoclonal antibody 19D4.B7 (antibody, mouse IgG2a, V domains shown, SULFO-TAG conjugated when used as detection antibody in the ECL assay; also called ATCC PTA-11884) VH: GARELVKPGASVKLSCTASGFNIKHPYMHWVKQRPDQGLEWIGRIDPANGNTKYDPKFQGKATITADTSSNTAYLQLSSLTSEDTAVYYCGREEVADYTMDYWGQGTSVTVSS VL: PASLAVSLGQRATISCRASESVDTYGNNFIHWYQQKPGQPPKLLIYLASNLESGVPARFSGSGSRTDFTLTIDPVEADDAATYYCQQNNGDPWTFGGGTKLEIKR', 'Average of S/B', 1);
